Measured values drawn from PubChem BioAssay (NCI) for this set.

test system: SK-MEL-28 melanoma; experiment: NCI tumour cell line growth inhibition, 48 h

[
  {
    "compound": "COc1ccc2nc(-c3ccc(OC(=O)N(C)C)cc3)cn2c1",
    "TGI": "> 100 µM"
  },
  {
    "compound": "O=C1C(NS(=O)(=O)c2ccccc2)=C(n2cnc3ccccc32)C(=O)c2ccccc21",
    "TGI": "> 100 µM"
  },
  {
    "compound": "O=C(CSc1nc2ccc(I)cc2c(=O)n1Cc1ccccc1)N/N=C/c1ccccc1",
    "TGI": "> 100 µM"
  },
  {
    "compound": "CCSC1(SCC)CCN(C=NC(C)(C)C)C1",
    "TGI": "> 100 µM"
  },
  {
    "compound": "CCCCCCN(CCCCCC)CCCNc1nccc2ccccc12",
    "TGI": "3.17 µM"
  },
  {
    "compound": "COC1/C=C\\C=C(/C)C(=O)NC2=CC(=O)C=C(C2=O)C(OC)C(C)CC(OC)C(OC)C(C)/C=C(/C)C1OC(N)=O (stereo unspecified)",
    "TGI": "19.8 µM"
  },
  {
    "compound": "CCN(CC)CC(O)c1ccc2ccc3ccccc3c2c1 (stereo unspecified)",
    "TGI": "34.6 µM"
  },
  {
    "compound": "COc1ccc(Nc2c3ccccc3nc3c2c2ccccc2n3C)cc1",
    "TGI": "> 100 µM"
  },
  {
    "compound": "Cc1ccc(/C=C(\\C#N)n2nnc3cc(Cl)c(Cl)cc32)cc1",
    "TGI": "4.77 µM"
  },
  {
    "compound": "COc1cc(N=C(N)N=C(N)N)c2ncccc2c1",
    "TGI": "> 100 µM"
  },
  {
    "compound": "CC(C)c1cc(C(C)C)c(S(=O)(=O)NN)c(C(C)C)c1",
    "TGI": "> 100 µM"
  }
]

###

test system: MCF7 breast; assay: NCI tumour cell line growth inhibition, 48 h
Output 1.0 for TGI not less than 30 µM; output 0.0 otherwise.

[
  {
    "compound": "CCOP(=O)(CCP(=O)(OCC)OCC)OCC.C[CH2][Sn]([Cl])([Cl])[CH2]C",
    "class_label": 1.0
  },
  {
    "compound": "C=C1c2nc3ccccc3n2C=C(c2ccc(Cl)cc2)N1c1ccc(OCCN2CCOCC2)cc1",
    "class_label": 1.0
  },
  {
    "compound": "Cc1cccc2c1Oc1cc(Cl)ccc1C2NC(=O)CCN1CCCCC1 (stereo not given)",
    "class_label": 1.0
  },
  {
    "compound": "CC1C2Cc3ccc(O)cc3C1(C)CCN2C (stereo not given)",
    "class_label": 1.0
  },
  {
    "compound": "Nc1nc(N)c2cc(CNc3ccc(Cl)c(Cl)c3)ccc2n1",
    "class_label": 0.0
  },
  {
    "compound": "C#CCNC(=O)CCC(N)C(=O)O (stereo not given)",
    "class_label": 1.0
  },
  {
    "compound": "O=[N+]([O-])c1cc2n[nH]nc2c2nonc12",
    "class_label": 0.0
  },
  {
    "compound": "Cn1c(-c2ccccc2)cc(-c2ccc3c(c2)OCO3)c1-c1cccs1",
    "class_label": 1.0
  },
  {
    "compound": "CC(C)=CC/C=C(/C)[C@H]1CC[C@]2(C)[C@@H]1CC[C@@H]1[C@@]3(C)CCC(=O)NC(C)(C)[C@@H]3CC[C@]12C",
    "class_label": 1.0
  },
  {
    "compound": "CC(=O)OCC1C(C(C)OC(C)=O)CCC2C1CCC1(C)C(OC(C)=O)CCC21 (stereo not given)",
    "class_label": 1.0
  }
]
